Test system: Wolbachia pipientis
Assay protocol: Anti-Wolbachia Cell-Based Screen
Type: functional
Design: scale not given: in the data most compounds retested in dose-response had high values
Condition summary: 5 µM
In all, about 48,000 compounds went through this assay and about 13,000 (27%) showed an effect of 50% or more. The list shows a part of the results.
Reported Percent Effect is given for each of the following compounds.
Measurement name: Percent Effect (%)

CSc1nccn1-c1ccc(C(=O)NCC2CC2)cc1 :: 114.7
CSc1nccn1-c1cccc(C(=O)NCCN2CCS(=O)(=O)CC2)c1 :: 100.7
COCC[C@]1(O)CCN(c2ncc(Cl)cc2F)C[C@H]1C :: -5.057
CCc1nc(CN2CCCC(NCc3cnn(C(C)(C)C)c3)C2)no1 (centres undefined) :: -2.673
CC(C)NC(=O)CCNC(=O)Nc1cccc(-c2nccn2C)c1 :: -18.82
Cc1nc(CN2CCCC(NCc3cnn(C)c3)C2)no1 (centres undefined) :: 104.5
Cc1cc2n(n1)CC(CNCCNC(=O)c1ccc(F)cc1)CN2 (centres undefined) :: -2.749
CCOc1cccc(CNC2CCCN(Cc3noc(C)n3)C2)c1 (centres undefined) :: 100.5
Cc1nc(CN2CCCC(N(C)c3cnc4ccccc4n3)C2)no1 (centres undefined) :: -0.8744

* * *

Tested on: Wolbachia pipientis
Assay protocol: Anti-Wolbachia Cell-Based Screen
Assay type: functional
Set-up: scale not given: in the data most compounds retested in dose-response had high values
Condition summary: 5 µM
Among all 48,000 compounds or so, about 13,000 (27%) showed an effect of 50% or more. The list shows a part of the results.
Measurement name: Percent Effect (%)

Nc1cc2c(nn1)CCN(C(=O)c1ccccc1Oc1cccnc1)C2 :: -10.76
Cc1cc(C)c(C(=O)NCCNc2ncnc3ccccc23)c(=O)[nH]1 :: -7.4
CCc1nc2c(NCC3COc4c(cccc4OC)C3)ncnc2o1 (stereo unspecified) :: -3.271
CCc1ncc(C(=O)NC(C)(C)C(=O)OC)s1 :: -4.518
COc1cnc(N2CCC(Oc3ccccc3OC)(C(=O)O)CC2)nc1 :: -8.18
COc1cccc([C@@H]2CN(C3CCCC3)C[C@H]2C(=O)O)c1 :: -6.459

* * *

Test system: Wolbachia pipientis
Assay protocol: Anti-Wolbachia Cell-Based Screen
Format: functional
Design: scale not given: in the data most compounds retested in dose-response had high values
Condition summary: 5 µM
Out of some 48,000 compounds screened, about 13,000 (27%) showed an effect of 50% or more. Some of the results follow.
Reported Percent Effect is given for each of the following compounds.
Measurement name: Percent Effect (%)

CC(=O)N1CCC(Cc2cnc(Nc3cc(C)on3)cn2)CC1 :: 121.6
CC(O)CN1CCC(CN(C)Cc2cccc(C#N)c2)CC1 (stereo not given) :: -3.336
N#Cc1c(N2CCCN(C3CCOCC3)CC2)nc2ccccn12 :: -1.844
COC(=O)[C@@H]1CN(S(=O)(=O)c2ccccc2)CCN1S(C)(=O)=O :: -4.195
CN(CCOCC1CC1)C(=O)Cn1cccc(C(F)(F)F)c1=O :: 10.84
O=C(NCCOCC1CC1)Nc1ccc(F)cc1 :: -7.278
CN(CCOCC1CC1)C(=O)Nc1ccc([S+](C)[O-])c(F)c1 (stereo not given) :: 94.49
COC(=O)c1ccc(S(=O)(=O)N2CCC(Oc3cccnn3)CC2)cc1 :: -19.83
CCCc1nc(CN(CC)C(=O)c2ccc3[nH]cnc3c2)no1 :: -17.17
CC(C)c1nncn1CCNC(=O)c1c(O)cc(F)cc1F :: 158.6
Cc1nc(CC(C)C)sc1C(=O)N1CCC(C2(C)OCCO2)CC1 :: 1.957
CC(C)c1nc(C(=O)NCCn2ccnc2)nn1-c1cccc(F)c1 :: 0.4969
CC(C)c1ccc(O)c(C(=O)NCc2nncn2C)c1 :: -11.21
Cn1ccc(CS(=O)(=O)Cc2cccc(F)c2)cc1=O :: 13.57
O=C(Cc1cnccn1)N1CCC(c2nccn2CC2CC2)CC1 :: -28.72
CC(=O)N1CCCC(C(=O)N2CCN(Cc3cc(C)on3)CC2)C1 (stereo not given) :: 8.609
CC(O)CN1CCC(CNCc2cccc(C(N)=O)c2)CC1 (stereo not given) :: 1.784
CCn1cnnc1CNC(=O)c1cc(Cl)ccc1O :: 6.278
CCC(=O)N1CCC(Cc2cnc(Nc3cnccn3)cn2)CC1 :: 88.17
COC(=O)c1cccn1C1CCN(S(=O)(=O)c2ccccc2)CC1 :: 89.91
